Entry source: ChEMBL document CHEMBL5113443

# Activity per entry
Tgt: DNA repair protein RAD51 homolog 1 (Homo sapiens) (UniProt Q06609)
Sequence (whole entry): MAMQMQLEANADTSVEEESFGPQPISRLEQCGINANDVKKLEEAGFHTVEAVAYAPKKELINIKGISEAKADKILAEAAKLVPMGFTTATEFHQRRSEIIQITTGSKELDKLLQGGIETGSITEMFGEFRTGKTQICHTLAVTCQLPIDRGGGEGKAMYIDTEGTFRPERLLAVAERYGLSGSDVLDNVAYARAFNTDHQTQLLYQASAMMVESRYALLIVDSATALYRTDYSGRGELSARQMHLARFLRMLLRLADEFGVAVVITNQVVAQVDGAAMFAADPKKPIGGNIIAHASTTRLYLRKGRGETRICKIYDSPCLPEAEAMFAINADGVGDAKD
Assay info: Binding affinity to RAD51 (158 to 180 residues) (unknown origin) assessed as beta-sheet content at 15 uM by circular dichroism spectroscopy (reference value: 17.7%)
Where a SMILES comes first, the peptide text is derived from it. The star is where a group is joined. X1 = O=C(c1cncc(C(F)(F)F)c1)*; X3 = O=C(c1cccnc1Br)*; X6 = O=C(c1cccnc1S)*
# output: bare number, implied unit %

Would you please look over these solved cases?
CC(C)C[C@H](NC(=O)[C@H](Cc1ccc(O)cc1)NC(=O)c1cccnc1S)C(=O)N[C@@H](CCC(N)=O)C(=O)N[C@@H](CC(N)=O)C(=O)N[C@H](C(=O)N[C@@H](Cc1ccccc1)C(=O)N[C@@H](CCCCN)C(=O)N[C@H](C(=O)N[C@@H](CO)C(=O)N[C@@H](CCCCN)C(=O)N[C@@H](CCCNC(=N)N)C(=O)N[C@@H](CCC(N)=O)C(=O)N[C@@H](CO)C(=O)N[C@@H](Cc1ccccc1)C(=O)N[C@@H](C)C(=O)N1CCC[C@H]1C(N)=O)C(C)C)[C@@H](C)O (X6-YLQNTFKVSKRQSFAP-NH2)
10.8
CC(C)C[C@H](NC(=O)[C@H](Cc1ccc(O)cc1)NC(=O)c1cccnc1Br)C(=O)N[C@@H](CCC(N)=O)C(=O)N[C@@H](CC(N)=O)C(=O)N[C@H](C(=O)N[C@@H](Cc1ccccc1)C(=O)N[C@@H](CCCCN)C(=O)N[C@H](C(=O)N[C@@H](CO)C(=O)N[C@@H](CCCCN)C(=O)N[C@@H](CCCNC(=N)N)C(=O)N[C@@H](CCC(N)=O)C(=O)N[C@@H](CO)C(=O)N[C@@H](Cc1ccccc1)C(=O)N[C@@H](C)C(=O)N1CCC[C@H]1C(N)=O)C(C)C)[C@@H](C)O (X3-YLQNTFKVSKRQSFAP-NH2)
13.1

Consider now this further compound.
Reported Activity ( CC(C)C[C@H](NC(=O)[C@H](Cc1ccc(O)cc1)NC(=O)c1cncc(C(F)(F)F)c1)C(=O)N[C@@H](CCC(N)=O)C(=O)N[C@@H](CC(N)=O)C(=O)N[C@H](C(=O)N[C@@H](Cc1ccccc1)C(=O)N[C@@H](CCCCN)C(=O)N[C@H](C(=O)N[C@@H](CO)C(=O)N[C@@H](CCCCN)C(=O)N[C@@H](CCCNC(=N)N)C(=O)N[C@@H](CCC(N)=O)C(=O)N[C@@H](CO)C(=O)N[C@@H](Cc1ccccc1)C(=O)N[C@@H](C)C(=O)N1CCC[C@H]1C(N)=O)C(C)C)[C@@H](C)O (X1-YLQNTFKVSKRQSFAP-NH2) ) = 13.4
